assay: Hepatocyte stability assay, cynomolgus monkey; format: in vitro ADME
Decide using Predicted Hepatocyte CL: a value greater than or equal to 3 mL/min/kg is criterion met, a smaller one is criterion not met.

Does Predicted Hepatocyte CL meet or surpass 3 mL/min/kg for C[C@H]1CN(C(=O)c2cc3c(cc2F)nc(N)c2cncn23)[C@H]2c3ccc(C(F)(F)F)cc3C[C@H]2O1 (single isomer, unassigned) ?
criterion not met

Confirm if Predicted Hepatocyte CL reported for the compound `Cc1ncc2c(N)nc3cnc(C(=O)N4CCC[C@@H]5Oc6cc(OC(F)(F)F)ccc6[C@@H]54)cc3n12` is 3 mL/min/kg or above.
criterion met

hey, is Predicted Hepatocyte CL for this one >= 3 mL/min/kg? Nc1nc2cnc(C(=O)N3CCC[C@@H]4Oc5cc(OC(F)(F)F)cc(F)c5[C@@H]43)cc2n2cncc12 (single isomer, unassigned)
criterion met

Hi team, for `Nc1nc2ccc(C(=O)N3CCC[C@@H]4Oc5cc(C(F)(F)F)ccc5[C@@H]43)cc2n2cncc12` , is the recorded Predicted Hepatocyte CL at or above 3 mL/min/kg?
criterion met

Decide: Predicted Hepatocyte CL of `Cc1ncn2c1c(N)nc1cnc(C(=O)N3CCC[C@@H]4Oc5cc(C(F)(F)F)ccc5[C@@H]43)cc12` >= 3 mL/min/kg?
criterion met

Check this compound for Predicted Hepatocyte CL at or above 3 mL/min/kg: `Nc1nc2cnc(C(=O)N3CCC[C@@H]4Oc5cc(OC(F)(F)F)ccc5[C@@H]43)cc2n2cncc12`
criterion met

====

system: SW780 (bladder, urothelial carcinoma; MTAP-Deleted); experiment: In vitro cell viability assay (CellTiter-Glo, 9 days), SW780; assay type: cell-based; conditions: Homo sapiens, SW780, 216 h, 9-day treatment
Please respond with reported GI50 for every item in the list.
Give the quantity in nM, number only.

Given item Nc1nc2cnc(C(=O)N3CC4(CC4)C[C@@H]4Oc5cc(C(F)(F)F)ccc5[C@@H]43)cc2n2cncc12 [Ff-648] , the value recorded as its GI50 is 12

// Nc1nc2cnc(C(=O)N3CCC[C@@H]4Oc5cc(OC(F)(F)F)cc(F)c5[C@@H]43)cc2n2cncc12 (single isomer, unassigned) [Fg-55] : GI50 value = 23

Entry Nc1nc2ccc(C(=O)N3CCC[C@@H]4Oc5cc(C(F)(F)F)ccc5[C@@H]43)cc2n2cncc12 [Ff-111] ; GI50 = 11

// GI50 lookup, compound = Cc1ncc2c(N)nc3cnc(C(=O)N4CCC[C@@H]5Oc6cc(OC(F)(F)F)ccc6[C@@H]54)cc3n12 [Ff-340] , result: 23

Lab note: Nc1nc2cnc(C(=O)N3CCC[C@@H]4Oc5cc(C(F)(F)F)cc(F)c5[C@@H]43)cc2n2cncc12 (single isomer, unassigned) [Fg-53] gave GI50 of 9

get_value(item= Nc1nc2cc(F)c(C(=O)N3CCC[C@@H]4Oc5cc(C(F)(F)F)ccc5[C@@H]43)cc2n2cncc12 [Ff-104] , readout=GI50) returns 5

Entry Nc1nc2cnc(C(=O)N3CCC[C@@H]4Oc5cc(C(F)(F)F)ccc5[C@@H]43)cc2n2cncc12 [Ff-110] — recorded GI50 = 120

====

tested on: HCT116 MTAP-deleted cell lines; assay: Cell viability assay (CellTiter-Glo, 7 days), HCT116 MTAP-deleted; format: cell-based; details: Homo sapiens, HCT-116; cell viability assay, HCT116 MTAP-deleted; class symbols; read-out: CC50
observed.property: CC50

Measured CC50 of COC1(C#Cc2ccc3c(c2)OC[C@H]3N(C)C(=O)c2ccc3nc(N)c4cncn4c3c2)CC1 [Ff-531] : 100 to 1000 nM

Note to self: CC50 recorded for C[C@H]1CN(C(=O)c2cc3c(cc2F)nc(N)c2cncn23)[C@H]2c3ccc(C(F)(F)C(F)(F)F)cc3C[C@H]2O1 [Fg-38] was < 100 nM

The compound identified as [2H]C1([2H])CC[C@@H]2Oc3cc(C(F)(F)F)ccc3[C@@H]2N1C(=O)c1ccc2nc(N)c3cncn3c2c1 [Ff-643] registered its CC50 at < 100 nM

CC50 measured on Cc1ncn2c1c(N)nc1cc(F)c(C(=O)N3C[C@H](C)C[C@@H]4Oc5nc(C(F)(F)F)ccc5[C@@H]43)cc12 [Ff-374] = < 100 nM

// sample C[C@H](c1ncccn1)N(Cc1ccc(C(F)(F)F)cn1)C(=O)c1ccc2nc(N)n3cncc3c2c1 [Fg-1] , its CC50 was 100 to 1000 nM

Value of CC50 reported for the compound Cc1ncn2c1c(N)nc1cnc(C(=O)N3CCC4(CC4)[C@@H]4Oc5cc(OC(F)(F)F)ccc5[C@@H]43)cc12 [Ff-617] is < 100 nM

Notebook: Nc1nc2ccc(C(=O)N3C[C@@H](F)C[C@@H]4Oc5cc(OC(F)(F)F)ccc5[C@@H]43)cc2n2cncc12 [Ff-667] , CC50 read as < 100 nM

====

Tested on: HCT116 MTAP-deleted cell lines
Test: Cell viability assay (CellTiter-Glo, 7 days), HCT116 MTAP-deleted
Format: cell-based
Conditions: Homo sapiens, HCT-116; cell viability assay, HCT116 MTAP-deleted; class symbols; read-out: CC50
Description: Control compounds were analyzed in parallel each time for quality control. In Brief, on Day -1, a serial dilution of stock compounds in DMSO was performed using BioMek liquid handlers and dispensed using Echo acoustic dispenser into 384 well plates. […] Compound plates were stored as frozen until the cells were ready for seeding. […] On Day 7, the viability of cells was measured using a CTG assay kit (CellTitre-Glo;Promega cat no. G7573). […]
observed.property: CC50

Entry `CN(C(=O)c1cc2c(cn1)nc(N)c1cncn12)[C@@H]1COc2cc(C34CC(C(F)(F)F)(C3)C4)ccc21` ; CC50 = 100 to 1000 nM

The reported CC50 of the compound `CN(C(=O)c1ccc2nc(N)c3cncn3c2c1)[C@@H]1COc2cc(C#CC3(C(F)F)CC3)ccc21` was 100 to 1000 nM

Field CC50 (entry `CC1(C)CN(C(=O)c2cc3c(cc2F)nc(N)c2cncn23)[C@H]2c3ccc(C(F)(F)F)cc3C[C@H]2O1` ) reads < 100 nM

Note to self: CC50 recorded for `CN(C(=O)c1cc2c(cc1F)nc(N)c1cncn12)[C@@H]1COc2cc(C#CC34CCC(CC3)OC4)ccc21` was 100 to 1000 nM

`CN(Cc1ccc([C@@H]2C[C@H]2c2ccn(C(F)F)n2)cc1F)C(=O)c1cc2c(cc1F)nc(N)c1cncn12` has a reported CC50 of < 100 nM

In plain terms, `Cc1ncc2c(N)nc3cnc(C(=O)N4CCC5(CC5)[C@@H]5Oc6cc(C(F)(F)F)ccc6[C@@H]54)cc3n12` has a documented CC50 of < 100 nM

The value of CC50 measured for the compound `CCN(C(=O)c1ccc2nc(N)c3c(C)ncn3c2c1)[C@@H]1COc2cc(C(F)(F)F)ccc21` turned out to be < 100 nM

Note to self: CC50 recorded for `Cc1ncn2c1c(N)nc1cc(F)c(C(=O)N3CCCC[C@@H]3c3ccc(S(F)(F)(F)(F)F)cc3)cc12` was < 100 nM

# compound `Cc1ncc2c(N)nc3ccc(C(=O)N4C[C@@H](F)C[C@@H]5Oc6cc(C(F)(F)F)ccc6[C@@H]54)cc3n12` ; its CC50 = < 100 nM

The measured CC50 associated with `C[C@@H]1C[C@@H]2Oc3nc(C(F)(F)F)ccc3[C@@H]2N(C(=O)c2cc3c(cc2F)nc(N)c2cncn23)C1` reads < 100 nM

Value of CC50 reported for the compound `Nc1nc2cc(F)c(C(=O)N3CC[C@H]4C[C@@H]3c3ccc(C(F)(F)F)c(F)c3O4)cc2n2cncc12` is < 100 nM

Note to self: CC50 recorded for `Nc1nc2cc(Br)c(C(=O)N3CCC[C@@H]4Oc5cc(C(F)(F)F)ccc5[C@@H]43)cc2n2cncc12` was < 100 nM

CC50 for `Nc1nc2ccc(C(=O)N3CCC[C@@H]4Oc5c(ccc(OC(F)(F)F)c5F)[C@@H]43)cc2n2cncc12` is < 100 nM

The reported CC50 of the compound `Nc1nc2cc(F)c(C(=O)N3CC[C@H]4C[C@@H]3c3ccc(Cl)nc34)cc2n2cncc12` was 100 to 1000 nM

Memo: `Nc1nc2cc(F)c(C(=O)N3CC[C@H]4C[C@@H]3c3ccc(Cl)cc34)cc2n2cncc12` , reported CC50: 100 to 1000 nM

====

test system: HCT116 MTAP-deleted cell lines; assay: Cell viability assay (CellTiter-Glo, 7 days), HCT116 MTAP-deleted; assay type: cell-based; conditions: Homo sapiens, HCT-116; cell viability assay, HCT116 MTAP-deleted; class symbols; read-out: CC50
observed.property: CC50

get_value(item= `Cc1ncc2c(N)nc3cc(F)c(C(=O)N4C[C@@H](C)O[C@@H]5Cc6cc(C(F)(F)F)ccc6[C@@H]54)cc3n12` , readout=CC50) returns < 0.1 µM

// sample `CN(C(=O)c1ccc2nc(N)c3cncn3c2c1)[C@@H]1COc2cc(C#CC(C)(C)S(C)(=O)=O)ccc21` , its CC50 was 0.1 to 1 µM

Entry `Cc1ncc2c(N)nc3cc(F)c(C(=O)N(Cc4ccc(C(F)(F)F)cn4)C4(C)CC4)cc3n12` — recorded CC50 = < 0.1 µM

compound `C[C@H](C(N)=O)N(Cc1ccc(C(F)(F)F)cc1F)C(=O)c1cc2c(cc1F)nc(N)c1cncn12` , CC50 observed: 0.1 to 1 µM

// sample `Nc1nc2cnc(C(=O)N3CCO[C@@H]4Cc5cc(C(F)(F)F)cc(F)c5[C@@H]43)cc2n2cncc12` , its CC50 was 0.1 to 1 µM

// CC50 lookup, compound = `CN(C(=O)c1cc2c(cc1F)nc(N)c1cncn12)[C@@H]1COc2cc(C#CC3(C(F)F)CCOCC3)ccc21` , result: < 0.1 µM

Short answer for `CN(C(=O)c1ccc2nc(N)c3cncn3c2c1)[C@@H]1COc2cc(Cl)ccc21` : CC50 was 0.1 to 1 µM
